metric.name: melting point

Known results for molecules:
{"columns": ["molecule", "melting point"],
 "data": [
  ["Cc1ccccc1-c1nc(-c2ccccc2Cl)sc1-c1ccc(S(C)(=O)=O)cc1", "156 to 157 °C"],
  ["CCNC(=O)c1sc(-n2ccc(O)cc2=O)cc1C", "183 to 184 °C"],
  ["CCOC(=O)C1(CNC(=O)C=CC(Cc2ccc3ccccc3c2)N(C)C(=O)c2cc(C(F)(F)F)cc(C(F)(F)F)c2)CCCC1 (centres undefined)", "136 to 138 °C"]
]}

**Query** Looking for the measured melting point of O=C(N[C@H](Cc1ccc(C(F)(F)F)cc1)[C@@H](O)c1ccc(F)cc1)C1CCCCC1 (racemic) , can you help?
**Result** 203 to 204 °C

====

Measured melting point of individual entries

Known results for compounds:
{"columns": ["compound", "melting point"],
 "data": [
  ["COc1ccc2c(c1)c(C(=O)OCc1ccccc1)nn2Cc1ccccc1", "107 to 109 °C"],
  ["CON=C(C)c1ccc(NS(C)(=O)=O)c(Oc2ccc(F)cc2F)c1", "118 to 120 °C"]
]}

**Query** Looking for the measured melting point of COC(=O)c1cc(=NS(=O)(=O)c2ccccc2)c2ccccc2o1 , can you help?
**Result** 144 to 146 °C

**Query** Check Cn1c(C(F)(F)F)c(I)c(=O)n(C)c1=O too.
**Result** 149 to 151 °C

====

metric.name: melting point

Known results for molecules:
{"columns": ["molecule", "metric.name", "observed.value"],
 "data": [
  ["Cc1noc(NS(=O)(=O)c2ccc(Br)cc2)c1Br", "melting point", "146 to 149 °C"],
  ["CCCCCCCCCCCCCCCCCCSP(=S)(C1CCCCC1)C1CCCCC1", "melting point", "67 to 69 °C"],
  ["CC(C)(C)OC(=O)NOCCC(=O)Oc1c(F)c(F)c(F)c(F)c1F", "melting point", "58 to 59 °C"],
  ["O=C1Cc2cccc(Sc3ccccc3)c2N1", "melting point", "160 to 161 °C"],
  ["OC1CCC2(c3c[nH]cn3)Cc3ccccc3C12 (centres undefined)", "melting point", "183 to 186 °C"]
]}

**Query** Looking for the measured melting point of Cc1ccc2c(c1)oc1c(C(=O)NN3CCOCC3)nn(-c3ccc(Cl)cc3Cl)c12 , can you help?
**Result** 178 to 180 °C

====

Measured melting point of individual entries

{"columns": ["compound", "melting point"],
 "data": [
  ["N#Cn1nc(-c2ccccc2)c(=O)cc1Br", "152 to 155 °C"],
  ["CCCn1c(=O)c2c(N)n(CC(=O)c3cccc(OC)c3)nc2n(Cc2ccccc2)c1=O", "184 to 185 °C"],
  ["CCc1n[nH]c(CC)c1CCCCCCOc1ccc(Cl)cc1", "130 to 132 °C"],
  ["O=C(C1CCCCC1)N(CCN1CCN(c2cccc3cccnc23)CC1)c1ccccc1OC(F)(F)F", "142 to 143 °C"],
  ["NC(=O)Cc1ccc2[nH]ccc2c1", "146 to 147 °C"]
]}

**Query** Looking for the measured melting point of Cn1ncc(N2CCCC2)c(-c2ccccc2C=NO)c1=O , can you help?
**Result** 239 °C

**Query** Check COc1ccc(CC(=O)Nc2c(C)c(C)c3c(c2C)[C@@H](c2ccc(C)cc2)C(C)(C)O3)cc1 too.
**Result** 166 to 167 °C
